# study.system: Prothrombin (Homo sapiens)
# condition: Blood
measured.parameter: IC200 (µM)
Write down the numeric answer in µM and omit the unit.

Which IC200 value is on record for `N=C(N)NCCC1CCN(C(=O)[C@H](Cc2cccc(C(=N)N)c2)NS(=O)(=O)c2ccc3ccccc3c2)CC1` ? 0.32

Field entry: `N=C(N)NCCC1CCN(C(=O)[C@H](Cc2cccc(C(=N)N)c2)NS(=O)(=O)c2ccc(Oc3ccccc3)nc2)CC1` 0.27

###

Answer each item with its documented Ki.
# study.system: Prothrombin (Homo sapiens, UniProt P00734)

Which Ki value is on record for `CC(C)c1cc(C(C)C)c(S(=O)(=O)N[C@@H](Cc2cccc(C(=N)N)c2)C(=O)N2CCCN(C(=O)C3CCN(C(=N)N)CC3)CC2)c(C(C)C)c1` ? 2500 nM

Field entry: `N=C(N)c1cccc(C[C@H](NS(=O)(=O)CCc2cccc3ccccc23)C(=O)N2CCN(C(=O)CCN=C(N)N)CC2)c1` 1500 nM

Field entry: CC(C)c1cc(C(C)C)c(S(=O)(=O)NC(Cc2cccc(C(=N)N)c2)C(=O)N2CCN(C(=O)CN=C(N)N)CC2)c(C(C)C)c1 (racemic) 1200 nM

Field entry: `N=C(N)NCCC(=O)N1CCN(C(=O)[C@H](Cc2cccc(C(=N)N)c2)NS(=O)(=O)c2ccc3ccccc3c2)CC1` 1400 nM
